- Test system: spontaneously hypertensive rats
- PROTOCOL TEXT: decrease in systolic blood pressure of spontaneously hypertensive rats
- Type: in vivo, rat
- SETTINGS: 50 mg/kg oral, 4 hours
Consider the following molecules and their measured systolic blood pressure (B.P.) reduction readings.

- MOLECULE: "CC1=C(C(=O)OC(C)COc2ccccc2)C(c2c(F)c(F)c(F)c(F)c2F)C2=C(CNCC2=O)N1 (stereo not drawn)"
  systolic blood pressure (B.P.) reduction / mmHg: -60
- MOLECULE: "COC(COC(=O)C1=C(C)NC2=C(C(=O)CNC2)C1c1cccc(Cl)c1)c1ccccc1 (stereo not drawn)"
  systolic blood pressure (B.P.) reduction / mmHg: -38
- MOLECULE: "CC1=C(C(=O)OCCOc2ccccc2)C(c2cccc(Cl)c2Cl)C2=C(CNCC2=O)N1.Cl (stereo not drawn)"
  systolic blood pressure (B.P.) reduction / mmHg: -73
- MOLECULE: "COC(COC(=O)C1=C(C)NC2=C(C(=O)CNC2)C1c1c(F)cccc1Cl)c1ccccc1 (stereo not drawn)"
  systolic blood pressure (B.P.) reduction / mmHg: -14
- MOLECULE: "CC1=C(C(=O)OCC2COc3ccccc3O2)C(c2c(F)c(F)c(F)c(F)c2F)C2=C(CNCC2=O)N1 (stereo not drawn)"
  systolic blood pressure (B.P.) reduction / mmHg: -42
- MOLECULE: "COC(COC(=O)C1=C(C)NC2=C(C(=O)CNC2)C1c1cccc(Cl)c1Cl)c1ccccc1 (stereo not drawn)"
  systolic blood pressure (B.P.) reduction / mmHg: -30

---

# Lookup of reported IC25 keyed by entry
- Test system: isolated paced intact rabbit atria
- PROTOCOL TEXT: negative inotropic (cardiac depressant) effect in isolated paced intact rabbit atria
- Format: cell-based
- SETTINGS: Oryctolagus cuniculus, 3 Hz, cumulative 10^-9 M to 10^-5 M, read-out: IC25 (concentration which produces 25% inhibition of isometric force)
ASSAY METRIC: IC25

- COMPOUND: "CO[C@H](COC(=O)C1=C(C)NC2=C(C(=O)CNC2)C1c1c(F)c(F)c(F)c(F)c1F)c1ccccc1 (stereo partly shown)"
  ASSAY METRIC: "IC25"
  OBSERVED MEASUREMENT: "6.5 µM"
- COMPOUND: "COC(COC(=O)C1=C(C)NC2=C(C(=O)CNC2)C1c1c(F)c(F)c(F)c(F)c1F)c1ccccc1 (stereo not shown)"
  ASSAY METRIC: "IC25"
  OBSERVED MEASUREMENT: "1 µM"
- COMPOUND: "CCOC(=O)C1=C(C)NC(C)=C(C(=O)OC)C1c1cccc(Cl)c1Cl (stereo not shown)"
  ASSAY METRIC: "IC25"
  OBSERVED MEASUREMENT: "0.8 µM"
- COMPOUND: "CC1=C(C(=O)OCCOc2cccc(Cl)c2Cl)C(c2c(F)c(F)c(F)c(F)c2F)C2=C(CNCC2=O)N1 (stereo not shown)"
  ASSAY METRIC: "IC25"
  OBSERVED MEASUREMENT: "1 µM"

// data source = patent US4596873A
